Recorded pIC50, one value per entry.
- Tested on: NCI-H1975
- PROTOCOL: cells
- CONDITION NOTES: Homo sapiens, NCI-H1975, 72 h
- Description: Cytotoxicity against human NCI-H1975 cells expressing EGFR L858R/T790M mutant assessed as inhibition of cell proliferation incubated for 72 hrs by CCK8 assay
pIC50: −log10 of the molar value.
QUANTITY MEASURED: pIC50

* C=CC(=O)Nc1cc(Nc2ncc(F)c(-c3ccc4cc(C(=O)NC)n(C(C)C)c4c3)n2)c(OC)cc1N1CCN(C(C)C)CC1 | 6.32
* C=CC(=O)Nc1cc(Nc2ncc(F)c(-c3ccc4cc(C(=O)NC)n(C(C)C)c4c3)n2)c(OC)cc1N1CCN(C)CC1 | 5.94
* C=CC(=O)Nc1cc(Nc2ncc(F)c(-c3ccc4cc(C(=O)NC)n(C(C)C)c4c3)n2)ccc1N1CCN(C(C)C)CC1 | 6.82
* C=CC(=O)Nc1cc(Nc2ncc(F)c(-c3ccc4cc(C(=O)N(C)C)n(C(C)C)c4c3)n2)ccc1N1CCN(C(C)C)CC1 | 6.33
* C=CC(=O)Nc1cc(Nc2ncc(F)c(-c3ccc4cc(C(=O)NC)n(C(C)C)c4c3)n2)ccc1N1CCN(C)CC1 | 6.97
* C=CC(=O)Nc1cc(Nc2ncc(F)c(-c3ccc4cc(C(=O)N(C)C)n(C(C)C)c4c3)n2)ccc1N1CCN(C)CC1 | 5.93
* C=CC(=O)Nc1cc(Nc2ncc(F)c(-c3ccc4cc(C(=O)NC)n(C(C)C)c4c3)n2)ccc1N(C)CCN(C)C | 7.36

---

- Tested on: HCC827
- PROTOCOL: cells
- CONDITION NOTES: Homo sapiens, HCC827, 72 h
- Description: Cytotoxicity against human HCC827 cells expressing EGFR Del19 mutant assessed as inhibition of cell proliferation incubated for 72 hrs by CCK8 assay
This section presents compounds with their documented IC50 values.
QUANTITY MEASURED: IC50 (nM)

• C=CC(=O)Nc1cc(Nc2ncc(F)c(-c3ccc4cc(C(=O)NC)n(C(C)C)c4c3)n2)c(OC)cc1N1CCN(C)CC1 = 1120
• C=CC(=O)Nc1cc(Nc2ncc(F)c(-c3ccc4cc(C(=O)NC)n(C(C)C)c4c3)n2)c(OC)cc1N1CCN(C(C)C)CC1 = 2180
• C=CC(=O)Nc1cc(Nc2ncc(F)c(-c3ccc4cc(C(=O)NC)n(C(C)C)c4c3)n2)ccc1N1CCN(C)CC1 = 108
• C=CC(=O)Nc1cc(Nc2ncc(F)c(-c3ccc4cc(C(=O)N(C)C)n(C(C)C)c4c3)n2)ccc1N1CCN(C(C)C)CC1 = 692
• C=CC(=O)Nc1cc(Nc2ncc(F)c(-c3ccc4cc(C(=O)N(C)C)n(C(C)C)c4c3)n2)ccc1N1CCN(C)CC1 = 1290
• C=CC(=O)Nc1cc(Nc2ncc(F)c(-c3ccc4cc(C(=O)NC)n(C(C)C)c4c3)n2)ccc1N(C)CCN(C)C = 385
• C=CC(=O)Nc1cc(Nc2nccc(-c3cn(C)c4ccccc34)n2)c(OC)cc1N(C)CCN(C)C = 16
• C=CC(=O)Nc1cc(Nc2ncc(F)c(-c3ccc4cc(C(=O)NC)n(C(C)C)c4c3)n2)ccc1N1CCN(C(C)C)CC1 = 103

---

- PROTOCOL: Metabolic stability in Sprague-Dawley rat liver microsomes assessed as intrinsic clearance at 10 uM preincubated for 5 mins followed by NADPH addition and measured upto 60 mins by HPLC analysis
- Type: ADME, Microsome
- CONDITION NOTES: time < 65 min, read-out: CLH
QUANTITY MEASURED: microsomal CLint at 10 µM

* C=CC(=O)Nc1cc(Nc2ncc(F)c(-c3ccc4cc(C(=O)NC)n(C(C)C)c4c3)n2)ccc1N1CCN(C)CC1 | 52 µL/min/mg

---

- PROTOCOL: Metabolic stability in rabbit liver microsomes assessed as half-life at 10 uM preincubated for 5 mins followed by NADPH addition and measured upto 60 mins by HPLC analysis
- Assay type: ADME, Oryctolagus cuniculus, Microsome
- CONDITION NOTES: time < 65 min
QUANTITY MEASURED: half-life at 10 µM (h)

• C=CC(=O)Nc1cc(Nc2ncc(F)c(-c3ccc4cc(C(=O)NC)n(C(C)C)c4c3)n2)ccc1N1CCN(C)CC1 = 2.36

---

- PROTOCOL: Metabolic stability in rabbit liver microsomes assessed as intrinsic clearance at 10 uM preincubated for 5 mins followed by NADPH addition and measured upto 60 mins by HPLC analysis
- Format: ADME, Oryctolagus cuniculus, Microsome
- CONDITION NOTES: time < 65 min, read-out: CLH
QUANTITY MEASURED: microsomal CLint at 10 µM (µL/min/mg)

• C=CC(=O)Nc1cc(Nc2ncc(F)c(-c3ccc4cc(C(=O)NC)n(C(C)C)c4c3)n2)ccc1N1CCN(C)CC1 = 32.7

---

- Tested on: A-431
- PROTOCOL: cells
- CONDITION NOTES: Homo sapiens, A-431, 72 h
- Description: Cytotoxicity against human A-431 cells assessed as inhibition of cell proliferation incubated for 72 hrs by CCK8 assay
pIC50: −log10 of the molar value.
So basically: pIC50 at 6 or higher? That is 1. Lower than 6? That is 0.

- C=CC(=O)Nc1cc(Nc2ncc(F)c(-c3ccc4cc(C(=O)NC)n(C(C)C)c4c3)n2)ccc1N1CCN(C(C)C)CC1: 1
- C=CC(=O)Nc1cc(Nc2ncc(F)c(-c3ccc4cc(C(=O)NC)n(C(C)C)c4c3)n2)c(OC)cc1N1CCN(C(C)C)CC1: 0
- C=CC(=O)Nc1cc(Nc2ncc(F)c(-c3ccc4cc(C(=O)N(C)C)n(C(C)C)c4c3)n2)ccc1N1CCN(C(C)C)CC1: 1
- C=CC(=O)Nc1cc(Nc2ncc(F)c(-c3ccc4cc(C(=O)NC)n(C(C)C)c4c3)n2)c(OC)cc1N1CCN(C)CC1: 0
- C=CC(=O)Nc1cc(Nc2ncc(F)c(-c3ccc4cc(C(=O)N(C)C)n(C(C)C)c4c3)n2)ccc1N1CCN(C)CC1: 0

Origin of values: ChEMBL document CHEMBL5614390
